test system: SR; experiment: NCI tumour cell line growth inhibition, 48 h
Activity calls are given as the source filed them. Cut-off read from the data, not from the text of the source: active = GI50 up to about 1.1 µM and inactive = higher. Where a SMILES comes first, the peptide text is derived from it. The star is where a group is joined. Cbz = O=C(OCc1ccccc1)*
Experimental Endpoint: GI50

Guide cases for GI50, answers given:
CC(C)COC(=O)c1ccc(/N=C\c2ccc(/C=N/c3ccc(C(=O)OCC(C)C)cc3)cc2)cc1 = > 100 µM (inactive)
O=C(/C=C/c1ccccc1O)c1ccc([N+](=O)[O-])cc1 = 19.4 µM (inactive)
CCOC(=O)c1oc2c(OC)ccc3c2c1CCC3 = > 100 µM (inactive)
CC(C)Cc1ccc(C(C)/C=C2\CCC(CN(C)C)C2=O)cc1 (centres undefined) = 3.2 µM (inactive)
CCCCCCCCCCCC(=O)OCC(C[As](=O)(O)O)OC(=O)CCCCCCCCCCC (centres undefined) = 3.64 µM (inactive)
O=C(NC1=C(Cl)C(=O)c2ccccc2C1=O)c1ccccc1 = 38.4 µM (inactive)
CC12CCC(C(Nc3cc(C(F)(F)F)cc(C(F)(F)F)c3)C1=O)C2(C)C (centres undefined) = > 100 µM (inactive)
CCOC(=O)C(CC(=O)OC)NC(=O)C(CC(=O)OC)NC(=O)C(CC(=O)OC)NC(=O)C(CC(=O)OC)NC(=O)OCc1ccccc1 (centres undefined) (Cbz-D(OMe)D(OMe)D(OMe)D(OMe)-OEt; configuration not given here) = > 100 µM (inactive)

Attention now shifts to the item below.
GI50 of CN1CCN(c2cc3[nH]c(-c4ccc(Cl)cc4)nc3cc2F)CC1 , assay on SR, is 24.1 µM (inactive)

====

system: TK-10; test: NCI tumour cell line growth inhibition, 48 h
Calls of active or inactive are those of the source. Cut-off read from the data, not from the text of the source: active = GI50 up to about 1.1 µM and inactive = higher.
Experimental Endpoint: GI50

CN(C)CCCNc1c2ccccc2[n+]([O-])c2ccccc12 = 31.9 µM (inactive)
Nc1nc(Cl)cc(NCCCCCCCCCCNc2cc(Cl)nc(N)n2)n1 = 16.5 µM (inactive)

Record CC(=O)OCC(=O)[C@@]1(O)CC[C@H]2[C@@H]3C[C@H](C)C4=CC(=O)C=C[C@]4(C)[C@@]3(F)[C@@H](O)C[C@@]21C ; system TK-10; GI50 = > 100 µM (inactive)

GI50 value, target or system TK-10, for CC1OC(OCC2OC(Oc3c(-c4ccc(O)cc4)oc4cc(O)cc(O)c4c3=O)C(OC3OCC(O)(CO)C3O)C(O)C2O)C(O)C(O)C1O (centres undefined) : > 100 µM (inactive)

====

tested on: MCF7; test: NCI tumour cell line growth inhibition, 48 h
Calls of active or inactive are those of the source. No stated cut-off is given here; in the data, active = GI50 up to about 1.1 µM and inactive = higher.
Parameter GI50: see the listing below.

BrP(NC1CCCCCC1)(c1ccccc1)(c1ccccc1)c1ccccc1 = 2.5 µM (inactive)
OC1c2ccccc2C(O)C2OC12 (stereo unspecified) = > 100 µM (inactive)
O=c1cc(N2CCOCC2)[nH]c(=O)n1-c1cccc(Cl)c1 = > 100 µM (inactive)
COc1ccc(C(=O)c2cc(OC)c(OC)c(OC)c2)cc1OC = 2.24 µM (inactive)
COC(=O)C1(Cc2ccc3c(c2)CCC3)Cc2cc3c(cc2C1=O)CCC3 (stereo unspecified) = 21.4 µM (inactive)

// switching to the query compound
Form field GI50, entry CC(C)OP(=O)(CN(C)/C(F)=N\C(F)(F)F)OC(C)C : > 100 µM (inactive)

====

The reader will find reported GI50 values listed item by item below.
tested on: SN12C; assay: NCI tumour cell line growth inhibition, 48 h
The source made the active and inactive calls. No stated cut-off is given here; in the data, active = GI50 up to about 1.1 µM and inactive = higher. Where a SMILES comes first, the peptide text is derived from it. The star is where a group is joined. Cbz = O=C(OCc1ccccc1)*

CCN(CC)c1ccc(/C=C2/C[N+](C)(C)C/C(=C/c3ccc(N(CC)CC)cc3)C2=O)cc1 = 3.17 µM (inactive)
COc1ccc(-c2c(C#N)c(O)n(C3OC(CO)C(O)C(O)C3O)c(=S)c2C#N)cc1 (configuration not stated) = > 100 µM (inactive)
COc1ccc(CSc2nc3ccccc3nc2-c2cccs2)cc1 = > 100 µM (inactive)
NCCn1ccc(NC(c2ccccc2)(c2ccccc2)c2ccccc2)nc1=O = 20.3 µM (inactive)
O=C(O)CNS(=O)(=O)c1ccc(NC(=O)c2ccc(F)cc2)cc1 = > 100 µM (inactive)

Query Oc1cc(O)c2c(c1)O[C@H](c1ccc(O)c(O)c1)[C@@H](O)C2 [CIANIDANOL] yields GI50 of > 100 µM (inactive)

The reported value for Cc1ccc2nc3ccccc3c(C3C4C(=O)N(c5ccc(F)cc5)C(=O)C4ON3C(C(N)=O)c3ccccc3)c2c1 (configuration not stated) in terms of GI50 is 33 µM (inactive)

Lab book: GI50 of S=P1(N2CCCCC2)Oc2ccc3ccccc3c2-c2c(ccc3ccccc23)O1 noted as > 100 µM (inactive)

Record CCCCc1c2cnccc2c(CCCC)c2c1[nH]c1ccccc12 , field GI50: 18 µM (inactive)

// CCOC(=O)C(CC(=O)OC)NC(=O)C(CC(=O)OC)NC(=O)C(CC(=O)OC)NC(=O)C(CC(=O)OC)NC(=O)OCc1ccccc1 (configuration not stated) (Cbz-D(OMe)D(OMe)D(OMe)D(OMe)-OEt; configuration not given here) : GI50 value = > 100 µM (inactive)

Memo: CCC1=C(C(C)=O)[C@@H]2CCCCC(C(=O)OC)[C@@H]2C1=O (some centres not stated) , reported GI50: > 100 µM (inactive)

# GI50 (molecule: N#CCCCC[N+]12CN3CN(CN(C3)C1)C2 ) is > 100 µM (inactive)

Record summary for Nc1ccc(C23CC4CC(C2)CC(c2ccc(N)cc2)(C4)C3)cc1 : reported GI50 = 25.1 µM (inactive)

According to the records, this molecule Cc1nc2ccc(S(=O)(=O)Nc3nccs3)cc2c(=O)n1NS(=O)(=O)c1nccs1 displays GI50 of > 100 µM (inactive)

Given item O/N=C\C(=N/O)Nc1ccc(Cc2ccc(NC(/C=N\O)=N/O)cc2)cc1 , the value recorded as its GI50 is 35.3 µM (inactive)

Lookup result for Cc1cc(NS(=O)(=O)c2ccc(Nc3c4ccccc4nc4c(C(=O)N5CCN(CCOS(C)(=O)=O)CC5)cccc34)cc2)no1 ; measured GI50: > 100 µM (inactive)

Record C=C(NC(=O)C(=C)NC(=O)c1ccc2c(n1)-c1coc(n1)C(=C)NC(=O)C(=C)NC(=O)c1nc(oc1C)C(=C)NC(=O)C(C(C)(C)O)NC(=O)C(=C)NC(=O)c1coc(n1)/C(=C/C)NC(=O)[C@H]([C@@H](C)O)NC(=O)c1csc-2n1)C(N)=O (some centres not stated) . Reported GI50: > 87.5 µM (inactive)

====

# GI50 per entry
system: SF-295; experiment: NCI tumour cell line growth inhibition, 48 h
Active and inactive are the calls of the source. Cut-off read from the data, not from the text of the source: active = GI50 up to about 1.1 µM and inactive = higher.

Use these answered entries as a reference point.
CCOc1cc2c(cc1O)CC[C@@H]1[C@@H]2CC[C@]2(C)C(N)CC[C@@H]12 (stereo not given in full) = 3.24 µM (inactive)
O=C1N=NC(=O)N1c1cc(C(F)(F)F)cc(C(F)(F)F)c1 = 2.78 µM (inactive)
CCCc1cc(=O)oc2c3c(c4c(c12)OC(C)(C)CC4)O[C@@H](C)[C@H](C)[C@H]3O = 13.5 µM (inactive)
COC(=O)CSc1nnc(-c2ccccc2)[nH]1 = > 100 µM (inactive)

What the record says about COc1ccc2c(c1)CCCN1Cc3ccccc3CC21 (stereo not given) : GI50 is 65.9 µM (inactive)

====

test system: HOP-62; assay: NCI tumour cell line growth inhibition, 48 h
Activity calls are given as the source filed them. Rule as the data show it: active = GI50 up to about 1.1 µM and inactive = higher. Non-standard residues stand in square brackets, D forms with d. Residues, ends and D or L forms follow the SMILES beside them. *: point of attachment. Cbz = O=C(OCc1ccccc1)*; Boc = CC(C)(C)OC(=O)*; Aib = CC(C)(N)C(=O)O; OBn = c1ccc(CO*)cc1; OtBu = CC(C)(C)O*; βAla = NCCC(=O)O
Write down one outcome, taken from active, inactive

Previously resolved entries follow.
COc1ccc(-c2csc3c2[N+]2(C)C=CC=C2C3N2CCCC2)cc1 (centres undefined) = inactive
S=P1(N2CCCCC2)Oc2ccc3ccccc3c2-c2c(ccc3ccccc23)O1 = inactive
CCCOC1OC(CS(=O)(=O)O)C(O)C(O)C1O (centres undefined) = inactive
CCOc1ccc(NC(=O)C(=O)CC(=O)c2c(C)[n+]([O-])c3ccccc3[n+]2[O-])cc1 = inactive
C[C@H]1CCC/C=C/[C@@H]2C[C@H](OC3OC(CO)C(O)C(O)C3O)C[C@H]2[C@H](O)/C=C/C(=O)O1 (some centres undefined) = inactive
COc1ccc(-n2c(C)nc3ccc(NC4OCC(O)C(O)C4O)cc3c2=O)cc1 (centres undefined) = inactive

Query: How was CN(C)CC(/C(Cc1ccccc1)=N\NC(=O)c1ccncc1)c1ccccc1 (centres undefined) classified in this test?
Reply: inactive

Query: How was CCOC(=O)N/N=C(/N)c1cccc(Br)c1 classified in this test?
Reply: inactive

Query: Recorded test call requested for Cc1cc(-c2nc3ccccc3s2)ccc1NC(=O)[C@@H](N)CCCCN
Reply: inactive

Query: What outcome does the record of this test show for CCOc1ccc(-c2oc(/C=N/NS(=O)(=O)c3ccc(C)cc3)c([N+](=O)[O-])c2-c2ccc(OCC)cc2)cc1 ?
Reply: inactive

Query: # lookup: test call for Cc1cnc2nc(-c3ccc4ccccc4c3)cc(O)c2c1
Reply: active

Query: Any idea what this test logged for COC(=O)c1ccccc1/C=C1\Cc2ccc3c(c2C1=O)CCCC3 ?
Reply: inactive

Query: Just curious, what result did CN(C)Cc1cc(/N=N/c2ccc(Cl)cc2)ccc1OC(=O)c1ccccc1 get here?
Reply: inactive

Query: Tell me the assay call for CC(=O)OCC(=O)[C@@]1(O)CC[C@H]2[C@@H]3C[C@H](C)C4=CC(=O)C=C[C@]4(C)[C@@]3(F)[C@@H](O)C[C@@]21C please.
Reply: inactive

Query: Dear all, I need the recorded test outcome for CCOC(=O)C(=O)C=P(c1ccccc1)(c1ccccc1)c1ccccc1 , thank you.
Reply: inactive

Query: Call for entry NC(=O)c1ccccc1NC(=O)C(=O)C(c1cnc2ccc([N+](=O)[O-])cc2n1)[N+](=O)[O-] (centres undefined) :
Reply: inactive

Query: How did this test come out for COc1ccc(OCC(C)(C)O)cc1 ?
Reply: inactive

Query: Could you check what this test reported for CC(C)(C)OC(=O)CC(NC(=O)OC(C)(C)C)C(=O)NC(CCCCNC(=O)OCc1ccccc1)C(=O)NC(C)(C)C(=O)NCCC(=O)OCc1ccccc1 (centres undefined) (Boc-D(OtBu)K(Cbz)[Aib][βAla]-OBn; configuration not given here) ?
Reply: inactive

Query: State the result this test recorded for CSc1nc2nc(C)c(C)nc2c(=O)[nH]1 .
Reply: inactive

Query: What did the test return for BrP(NC1CCCCCC1)(c1ccccc1)(c1ccccc1)c1ccccc1 ?
Reply: inactive

Query: Per the assay record, what outcome was assigned to C/C(=N\NS(=O)(=O)c1ccc(C)cc1)c1ccc[n+]([O-])n1 ?
Reply: inactive

Query: Per the assay record, what outcome was assigned to CC(=O)[C@@]1(c2ccccc2)CC2(CCN(C)CC2)O[C@H]1C ?
Reply: inactive
